Numbers sourced from patent US7662832B2.

Consider the following molecules and their measured pIC50 readings.
testedSystem: Proton Pump (H^+/K^+-ATPase) (Sus scrofa, UniProt P19156)
Sequence (P19156 2-1034 limits assumed): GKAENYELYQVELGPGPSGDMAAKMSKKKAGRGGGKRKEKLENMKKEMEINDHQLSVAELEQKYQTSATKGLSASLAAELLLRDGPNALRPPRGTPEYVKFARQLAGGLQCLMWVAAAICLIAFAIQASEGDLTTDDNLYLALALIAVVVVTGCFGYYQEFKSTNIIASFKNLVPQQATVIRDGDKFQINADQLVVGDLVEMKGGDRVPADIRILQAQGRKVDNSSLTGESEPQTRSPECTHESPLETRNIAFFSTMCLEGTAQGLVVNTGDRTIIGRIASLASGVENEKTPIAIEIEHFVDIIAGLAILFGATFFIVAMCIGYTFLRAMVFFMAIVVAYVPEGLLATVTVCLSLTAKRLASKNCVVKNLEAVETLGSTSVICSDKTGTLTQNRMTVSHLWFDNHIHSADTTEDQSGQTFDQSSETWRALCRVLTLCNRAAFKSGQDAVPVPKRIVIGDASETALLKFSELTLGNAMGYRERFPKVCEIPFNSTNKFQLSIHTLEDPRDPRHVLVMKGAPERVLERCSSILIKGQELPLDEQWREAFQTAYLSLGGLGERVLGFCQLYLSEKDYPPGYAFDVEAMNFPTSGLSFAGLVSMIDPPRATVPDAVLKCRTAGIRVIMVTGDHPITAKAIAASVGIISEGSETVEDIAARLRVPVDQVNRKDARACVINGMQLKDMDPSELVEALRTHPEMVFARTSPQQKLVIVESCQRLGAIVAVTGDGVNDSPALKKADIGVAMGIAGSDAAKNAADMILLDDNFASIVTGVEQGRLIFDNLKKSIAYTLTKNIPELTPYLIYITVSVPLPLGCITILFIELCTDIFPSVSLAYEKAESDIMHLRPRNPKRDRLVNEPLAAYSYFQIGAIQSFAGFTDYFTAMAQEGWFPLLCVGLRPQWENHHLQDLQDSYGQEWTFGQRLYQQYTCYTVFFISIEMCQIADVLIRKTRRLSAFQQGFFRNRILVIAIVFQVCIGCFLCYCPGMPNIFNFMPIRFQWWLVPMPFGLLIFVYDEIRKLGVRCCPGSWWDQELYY
Sequence (P18434 whole entry partner): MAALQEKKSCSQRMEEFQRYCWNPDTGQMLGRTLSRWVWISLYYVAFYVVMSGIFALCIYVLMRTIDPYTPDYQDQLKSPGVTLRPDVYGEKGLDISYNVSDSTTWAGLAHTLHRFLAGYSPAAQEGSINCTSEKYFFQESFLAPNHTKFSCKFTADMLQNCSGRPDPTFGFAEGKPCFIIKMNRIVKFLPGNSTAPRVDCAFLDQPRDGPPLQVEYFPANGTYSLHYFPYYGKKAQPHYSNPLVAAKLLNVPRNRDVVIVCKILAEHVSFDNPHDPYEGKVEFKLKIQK
experimentalProtocol: Inhibitory effects on proton pump (H^+/K^+-ATPase) activity
conditionLabel: hog gastric vesicles; K^+ stimulated H^+/K^+-ATPase activity; 30 minutes at 37° C.
Structures can show the parent of a compound that is named as a salt.
Formally, pIC50 is defined as -log10 of the concentration c, with c in mol/L.

INPUT: Give the measured pIC50 for C=Cc1ccc(-c2nccc3c(C)c(C)n(CCC(C)C)c23)cc1 [Example 256, hydrochloride]
OUTPUT: 6.51

INPUT: Give the measured pIC50 for C#CCn1c(C)c(C)c2ccnc(-c3ccc(C=C)cc3)c21 [Example 249, hydrochloride]
OUTPUT: 7.30

INPUT: Give the measured pIC50 for CCOCCn1c(C)c(C)c2ccnc(N3CCc4ccccc4C3)c21 [Example 503, hydrochloride]
OUTPUT: 6.80

INPUT: Give the measured pIC50 for COc1cccc(Cn2c(C)c(C)c3ccnc(CN(C)c4ccc(F)cc4)c32)c1 [Example 116, hydrochloride]
OUTPUT: 7.32

INPUT: Give the measured pIC50 for CCn1c(C)c(C)c2ccnc(N3CCc4ccc(F)cc4C3C)c21 (stereo not drawn) [Example 543, hydrochloride]
OUTPUT: 6.96

====

testedSystem: Proton Pump (H^+/K^+-ATPase) (Sus scrofa)
experimentalProtocol: Inhibitory effects on proton pump (H^+/K^+-ATPase) activity
conditionLabel: hog gastric vesicles; K^+ stimulated H^+/K^+-ATPase activity; 30 minutes at 37° C.
Structures can show the parent of a compound that is named as a salt.
testReadout: IC50 (nM)
The reply should contain only the number, in nM.

| compound | IC50 (nM) |
| --- | --- |
| Cc1c(C)n(C)c2c(N3CCc4ccccc4C3)nccc12.Cl [Example 470, hydrochloride] | 320 |
| Cc1ccc(CNCc2cc3c(C)c(C)n(Cc4cccc(F)c4)c3c(N3CCc4ccccc4C3)n2)cc1 [Example 867, hydrochloride] | 412 |
| CCn1c(C)c(C)c2cc(C(=O)N3CCSCC3)nc(N3CCc4ccccc4C3)c21 [Example 808, hydrochloride] | 55 |

API: the following record is the query input.
INPUT: Answer briefly: IC50 recorded on Proton Pump (H^+/K^+-ATPase) (Sus scrofa) for C=CCn1c(C)c(C)c2ccnc(N3CCc4ccccc4C3)c21 [Example 487, methanesulfonate]
OUTPUT: 4

====

Consider the following molecules and their measured pIC50 readings.
testedSystem: Proton Pump (H^+/K^+-ATPase) (Sus scrofa, UniProt P19156)
experimentalProtocol: Inhibitory effects on proton pump (H^+/K^+-ATPase) activity
conditionLabel: hog gastric vesicles; K^+ stimulated H^+/K^+-ATPase activity; 30 minutes at 37° C.
Structures can show the parent of a compound that is named as a salt.
Formally, pIC50 is defined as -log10 of the concentration c, with c in mol/L.

| molecule | testedSystem | pIC50 |
| --- | --- | --- |
| CSc1ccc(-c2nccc3c(C)c(C)n(CC4CC4)c23)cc1 [Example 270, hydrochloride] | Proton Pump (H^+/K^+-ATPase) (Sus scrofa, UniProt P19156) | 6.35 |
| Cc1c(C)n(Cc2cccc(F)c2)c2c(N3CCc4ccccc4C3)nccc12.Cl [Example 480, hydrochloride] | Proton Pump (H^+/K^+-ATPase) (Sus scrofa, UniProt P19156) | 7.49 |
| Cc1c(C)n(Cc2cccc(F)c2)c2c(N3CCc4ccccc4C3)nc(CC#N)cc12 [Example 884, hydrochloride] | Proton Pump (H^+/K^+-ATPase) (Sus scrofa, UniProt P19156) | 6.67 |
| CCn1c(C)c(C)c2ccnc(N3CCc4ccccc4C3)c21 [Example 481, hydrochloride] | Proton Pump (H^+/K^+-ATPase) (Sus scrofa, UniProt P19156) | 7.23 |
| Cc1c(C)n(CC2CC2)c2c(NCc3ccc(Cl)cc3)nccc12 [Example 227, hydrochloride] | Proton Pump (H^+/K^+-ATPase) (Sus scrofa, UniProt P19156) | 7.14 |

API: the following record is the query input.
INPUT: Give the measured pIC50 for Cc1c(C)n(CC2CC2)c2c(N3CCc4ccccc4C3)nc(C(=O)N3CCNCC3)cc12 [Example 816, hydrochloride]
OUTPUT: 8.05
